Here the recorded cytotoxicity at 70.5 h is given for each entry.
experiment: Human HepG2 cell viability assay in 384 well format; assay type: toxicity, cell-based; parameters: dose 125 nL, time 70.5 hour; concentration not given beside the values; settings: HepG2 cells, read-out: Inhibition
PROPERTY: cytotoxicity at 70.5 h (%)

| COMPOUND | DISPLAY UNIT | VALUE REPORTED |
| --- | --- | --- |
| O=C(CC1CCCC1)N1C[C@H](OCc2ccncc2)[C@H]2OCCC[C@H]21 | % | -27.1 |
| O=C(CCCn1cncn1)N1CCC2(CCCN(C3CCCC3)C2=O)C1 (centres undefined) | % | -4.98 |
| CC(C)c1ccc(-n2nnc(C(=O)O)c2-c2ccccn2)cc1 | % | -24.1 |
| Cc1cnc(C2CCCN(C(=O)c3c[nH]c(=O)[nH]c3=O)C2)s1 (centres undefined) | % | -8.7 |
| O=C(NCC1CC1)C1CCC2(CCNCC2)C1 (centres undefined) | % | -2.15 |
| Cc1nnc(SCC(=O)Nc2csc3nc(=O)c(C)nn23)s1 | % | 7.9 |
| COc1cccc(CN(C)Cc2[nH]c3ccccc3c2C)c1O | % | 1.38 |
| CC(Cc1ccccn1)N(C)C(=O)c1ncc[nH]1 (centres undefined) | % | -8.42 |
| O=C(CC1CSc2nccc(=O)n21)NCc1ccco1 (centres undefined) | % | -1.36 |
| N#Cc1cccc(CN2CCN(Cc3cscn3)CC2)c1 | % | -10 |
| COCCCN1CCN(C(=O)C(c2cccc(F)c2)N(C)C)CC1 (centres undefined) | % | -5.78 |
| CC(=O)N1N=C(c2cccs2)OC1C(=O)NCCc1cccc(Cl)c1 (centres undefined) | % | 28.8 |
| O=C(C1CC=CC1)N1CCC2(CCN(Cc3cccc(F)c3)CC2)C1 | % | -3.05 |
| COc1ccc(C(=O)NCCNC(=O)c2cncnc2C)cc1 | % | -8.47 |

* * *

experiment: Human HepG2 cell viability assay in 384 well format; format: toxicity, cell-based; set-up: dose 125 nL, time 70.5 hour; concentration not given beside the values; settings: HepG2 cells, read-out: Inhibition

| COMPOUND | cytotoxicity at 70.5 h [%] |
| --- | --- |
| CSc1nnc(N(CCC#N)CCC#N)s1 | 6.15 |
| COc1nccnc1N1CCC(C(=O)O)(n2ccc(C(C)(C)C)n2)CC1 | -10.8 |
| O=C(N[C@@H]1CC[C@@H](N2CCCC2)[C@@H]1O)c1cc2cccc(F)c2[nH]1 | -9.84 |
| Cc1nn(C)c(Cl)c1C1CCCN1C(=O)c1ccc2c(c1)OCO2 (centres undefined) | -16.9 |
| Cc1ccc(CN2CC[C@H](c3nnc(-c4ccco4)o3)C2)cc1 | 6.16 |
| CCS(=O)(=O)N1Cc2nccn2CC(Cn2cccn2)C1 (centres undefined) | 1.18 |
| Cc1nc(CN2CCC(N3CCN(C)C3=O)CC2)no1 | 18 |
| Cc1cc(C)nc(C2CCN(C(=O)CCn3nnc4ccccc43)C2)n1 (centres undefined) | -6.12 |
| CCOc1ccccc1CCN1Cc2ncccc2C1=O | 3.15 |

* * *

test: Human HepG2 cell viability assay in 384 well format; type: toxicity, cell-based; parameters: dose 125 nL, time 70.5 hour; concentration not given beside the values; conditions: HepG2 cells, read-out: Inhibition
Here the recorded cytotoxicity at 70.5 h is given for each entry.

| MOLECULE | DISPLAY UNIT | cytotoxicity at 70.5 h |
| --- | --- | --- |
| Cc1ccccc1C(C(=O)NCCSC(F)(F)F)N(C)C (stereo not drawn) | % | -11.1 |
| Cc1cc(S(=O)(=O)N2CCCc3cc(Br)ccc32)sc1C(=O)O | % | -6.91 |
| Cc1ccc(S(=O)(=O)NCC(O)c2ccoc2)s1 (stereo not drawn) | % | -12.5 |
| CN1CCN(c2cnn(Cc3ccc(S(C)(=O)=O)cc3)c(=O)c2)CC1 | % | -2.57 |
| Cn1cc(CN2CCCC(CCc3ccc(F)c(F)c3)C2)cn1 (stereo not drawn) | % | -2.93 |
| CN(C)C(=O)[C@H]1C[C@@H]2CN(S(=O)(=O)Cc3ccccc3)C[C@H]1O2 | % | -17.1 |
| Cc1noc(Cl)c1CCC(=O)N1CCN(c2cnccn2)CC1 | % | -16.7 |
| Fc1ccccc1Sc1ccccc1CNC1=NCCN1 | % | -0.773 |

* * *

Here the recorded cytotoxicity at 70.5 h is given for each entry.
assay: Human HepG2 cell viability assay in 384 well format; type: toxicity, cell-based; design: dose 125 nL, time 70.5 hour; concentration not given beside the values; details: HepG2 cells, read-out: Inhibition

| COMPOUND | cytotoxicity at 70.5 h |
| --- | --- |
| CC1CCCN(CCCNC(=O)c2ccc(N(C)S(C)(=O)=O)cc2Cl)C1 (configuration not stated) | -2.33% |
| Cc1cccc(NC(=O)NCCCn2nc3ccccn3c2=O)c1C | -8.44% |
| Cc1nc(-c2ccccc2)c(C(=O)N2CCC3(CC(=O)NC3=O)C2)s1 (configuration not stated) | -6.69% |
| Cc1ccc(CNC(=O)c2oc3ccccc3c2CN(C)C)n1C | -6.83% |
| c1c2c(nn1CC1CC1)C(CNC1CCOCC1)OCC2 (configuration not stated) | -11.6% |
| OCc1cccc(OCc2ccon2)c1 | -3.01% |
| COc1ccc(NC(=O)N2CCCC2c2ccncc2)cn1 (configuration not stated) | -11.6% |

* * *

assay: Human HepG2 cell viability assay in 384 well format; assay type: toxicity, cell-based; design: dose 125 nL, time 70.5 hour; concentration not given beside the values; conditions: HepG2 cells, read-out: Inhibition

| COMPOUND | cytotoxicity at 70.5 h, % |
| --- | --- |
| O=S1(=O)N=C(CSCc2ccccc2)Nc2ccccc21 | -3.64 |
| CC(C)(C)NC(=O)COc1ccc(CNCCOc2ccccn2)cc1 | -2.01 |
| O=C(NCCOc1cccc(Cl)c1Cl)N1CCC2(CC1)OCCO2 | -4.01 |
| O=S(=O)(Nc1c(F)cccc1N1CCCC1)c1cncc(F)c1 | -5.83 |
| CC(=O)N1CCN(c2cc(C3CCNCC3)ccn2)CC1 | -1.18 |
| CCCN1CCN(C(=O)Cn2nc(C(F)(F)F)c(Br)c2C2CC2)CC1 | -6.28 |
| CC1(C(=O)NC2CCCC2)CN(c2cnccn2)CCO1 (stereo unspecified) | -13.6 |
| Cc1nc(C)n(Cc2cccc(NC(=O)NC(C)(CO)C3CC3)c2)n1 (stereo unspecified) | -6.87 |
| Cc1cccnc1CNc1cc(N2CCCC2CO)ncn1 (stereo unspecified) | -8.44 |
| O=C(N[C@@H]1CN(c2ncccn2)C[C@@H]2CCCO[C@@H]21)c1ccncc1 | -3.78 |
| CCNC(c1cccnc1)c1ccc(F)c(F)c1 (stereo unspecified) | -2.78 |
| O[C@@H]1CN(Cc2cnccn2)C[C@H]1Oc1ccccc1 | -6.26 |
| CCOc1ccc(CC(=O)Nc2cnccc2SCCCO)cc1 | -6.43 |
| O=C(O)c1ccnc(-c2ccnc(N3CCC4(CCO4)CC3)n2)c1 | -11.6 |
| CC(C(=O)NCc1ccnc(N2CCN(C)CC2)c1)S(C)(=O)=O (stereo unspecified) | 22.3 |
| FC(F)(F)c1ccc(-c2cc(NC3CCNCC3)nc3[nH]ccc23)nc1 | -7.67 |

* * *

assay: Human HepG2 cell viability assay in 384 well format; assay type: toxicity, cell-based; set-up: dose 125 nL, time 70.5 hour; concentration not given beside the values; details: HepG2 cells, read-out: Inhibition

| COMPOUND | cytotoxicity at 70.5 h |
| --- | --- |
| CCOCC1CC2(CCN(C(=O)c3ccccc3F)CC2)CO1 (stereo unspecified) | 0.964% |
| CN(C(=O)Nc1cccc(C#N)c1)C1CCN(c2ccccn2)CC1 | -8.89% |
| CC(C)C(=O)N1CCC(c2nc3ccccn3c2NC(C)(C)C)CC1 | -10.5% |
| COCCNc1ccccc1CNC(=O)NCc1cnc(C)s1 | -0.0167% |
| CN1CCc2c(c(COc3cncnc3)nn2CC2CC2)C1 | 5.89% |
| CCN(CC)c1ncccc1CNC(=O)c1cc2nc(C)cc(C)n2n1 | -0.33% |
| COc1cccc(/C=C/CCN2CCN(S(C)(=O)=O)CC2)c1 | -3.47% |
| COCCOc1ncccc1C(=O)N(C)c1ccc(OC)c(OC)c1 | -11.7% |
| CS(=O)(=O)N1CCC(CNC(=O)c2cnccn2)CC1 | 31.3% |
| COc1ccc(CN(C)CC2CCCN2c2cccnn2)cc1F (stereo unspecified) | 44.2% |
| CSC1(CNC(=O)N(C)Cc2ccc(Cl)s2)CCOCC1 | 30.6% |
| CC(C)CN1CCCn2nc(CNC(=O)CCCc3cn[nH]c3)cc2C1 | -9.85% |
| COCCS(=O)(=O)NC(C)c1cccc(C)c1C (stereo unspecified) | 28.4% |
| Cc1nc(N2CCN(C(=O)NCc3cscn3)CC2)sc1C | -2.92% |
| COC(=O)c1ccc(Cl)c(CN(C)Cc2ncnn2C)c1 | 1.01% |
| CC(C)(O)c1cn(C2CCN(c3ncccc3Cl)CC2)nn1 | 3.9% |
| CC1(C)CN(C(=O)c2cnc(CN3CCCC3)s2)CC[C@]1(C)O | -0.621% |
| CN1CCN(C(=O)CCc2cc(Br)cs2)CC1 | -6.76% |
| CC(C)(C)CCNC(=O)c1ccc(Cl)c(NS(C)(=O)=O)c1 | 8.13% |
| Cc1ccc(Cl)cc1N1CCN(CC(=O)NCc2ccco2)CC1 | 7.45% |
| CN1CCN(C)C2(CCN(Cc3ccc(C4CCCCO4)o3)CC2)C1 (stereo unspecified) | -1.75% |
| Cn1ccnc1COc1ccc(NC(=O)C2CCCO2)cc1 (stereo unspecified) | 3.57% |
| N#Cc1cccnc1OC1CCN(S(=O)(=O)c2ccc(Br)cc2)CC1 | -12.9% |
| N#Cc1ccc(CN(CC(N)=O)Cc2cccc(F)c2)cc1 | -2.99% |
| Cc1cccc(CN2CCC3(CCC(C(=O)N(C)C)O3)CC2)n1 (stereo unspecified) | -9.32% |
| CCCNC(=O)NCc1nc(C)c(C)o1 | 7.79% |
| c1cn(Cc2nnc(C3CCN(C4CCNCC4)CC3)n2C2CC2)cn1 | -1.79% |
| Cc1ccc([C@]2(O)CC[C@H]3CN(Cc4ccccc4F)C[C@H]32)nc1 | -9.24% |
| CC(C)Cc1cc(C(=O)NC(C)(C)CN2CCCCCC2)on1 | -4.52% |
| O=C(NCCCn1nc2ccccn2c1=O)NCCC1CCC1 | -3.21% |
| Cc1cc(-c2nccs2)nc(C2CCN(Cc3ccncc3)CC2)n1 | -0.926% |
